- assay-overview: collision cross section of modified peptide (TIMS, N2, iRT-aligned); higher = larger / more extended gas-phase ion
- measurement-parameters: charge state: 2; modification: Propionyl
property-name: collision cross section (Å²)

VTLEVGKVIQQGR [_VTLEVGK(Propionyl)VIQQGR_] :: 410.06
LQLEIDQKK [_LQLEIDQK(Propionyl)K_] :: 368.05
SKLLFSNTAAQK [_SK(Propionyl)LLFSNTAAQK_] :: 398.2
VNALKNLQVK [_VNALK(Propionyl)NLQVK_] :: 372.11
ITESVAETAQTIKK [_ITESVAETAQTIK(Propionyl)K_] :: 421.06
DFDTALKHYDK [_DFDTALK(Propionyl)HYDK_] :: 403.21
SGNLTEDDKHNNAK [_SGNLTEDDK(Propionyl)HNNAK_] :: 423.13
PASGAGAGAGAGKR [_PASGAGAGAGAGK(Propionyl)R_] :: 359.78
INNFSADIKDSK [_INNFSADIK(Propionyl)DSK_] :: 401.7
GEVQVSDKER [_GEVQVSDK(Propionyl)ER_] :: 360.54
FDDTNPEKEEAK [_FDDTNPEK(Propionyl)EEAK_] :: 396.96
TPNLYIYSKK [_TPNLYIYSK(Propionyl)K_] :: 384.03
AAINQKLIETGER [_AAINQK(Propionyl)LIETGER_] :: 404.63
DKALPLEAEVAPVK [_DK(Propionyl)ALPLEAEVAPVK_] :: 410.19
STGLELETPSLVPVKK [_STGLELETPSLVPVK(Propionyl)K_] :: 435.15
SLGEPAAGEGSAKR [_SLGEPAAGEGSAK(Propionyl)R_] :: 383.35
LQAAYAGDKADDIQK [_LQAAYAGDK(Propionyl)ADDIQK_] :: 432.96
KYEEIDNAPEER [_K(Propionyl)YEEIDNAPEER_] :: 411.41
AGQKLIDVNHYAK [_AGQK(Propionyl)LIDVNHYAK_] :: 432.1
GSLEKGSPEDK [_GSLEK(Propionyl)GSPEDK_] :: 368.76
SGKFTQQDIDEAK [_SGK(Propionyl)FTQQDIDEAK_] :: 414.71
LLIVSTTPYSEKDTK [_LLIVSTTPYSEK(Propionyl)DTK_] :: 452.01
IQQELQTAKK [_IQQELQTAK(Propionyl)K_] :: 379.28

----------
- assay-overview: collision cross section of modified peptide (TIMS, N2, iRT-aligned); higher = larger / more extended gas-phase ion
- measurement-parameters: charge state: 3; modification: GlyGly (K)
property-name: collision cross section (Å²)

STGLELETPSLVPVKK [_STGLELETPSLVPVK(GlyGly (K))K_] :: 530.27
LLEQKTQESQK [_LLEQK(GlyGly (K))TQESQK_] :: 452.18
FDDTNPEKEEAK [_FDDTNPEK(GlyGly (K))EEAK_] :: 486.07
SPSDSGYSYETIGKTTK [_SPSDSGYSYETIGK(GlyGly (K))TTK_] :: 532.2
ISSNFSSIIAEKLR [_ISSNFSSIIAEK(GlyGly (K))LR_] :: 502.71
LAEEENKAK [_LAEEENK(GlyGly (K))AK_] :: 428.57
ITASLCDLKSR [_ITASLCDLK(GlyGly (K))SR_] :: 457.36
FSAYIKNSNPALNDNLEK [_FSAYIK(GlyGly (K))NSNPALNDNLEK_] :: 530.18
IHVQSSSDSSDEPAEKR [_IHVQSSSDSSDEPAEK(GlyGly (K))R_] :: 539.73
SKHLQEQLNELK [_SK(GlyGly (K))HLQEQLNELK_] :: 495.28
ISALQGKLSK [_ISALQGK(GlyGly (K))LSK_] :: 430.51
DLGKFQVATDALK [_DLGK(GlyGly (K))FQVATDALK_] :: 498.2
YIEIYVQKVNPSR [_YIEIYVQK(GlyGly (K))VNPSR_] :: 515.19
GETASKLQSEISR [_GETASK(GlyGly (K))LQSEISR_] :: 455.84
TQDQISNIKYHEEFEK [_TQDQISNIK(GlyGly (K))YHEEFEK_] :: 559.05
TVSKVDDFLANEAK [_TVSK(GlyGly (K))VDDFLANEAK_] :: 494.01
